test system: Mus musculus; assay: Immunomodulatory activity in ip dosed C57BL/6 mouse assessed as stimulation of IFNgamma production after 24 hrs
The source made the active and inactive calls. The calls are words filed in the database; no cut-off is given here.

[
  {
    "LINE_NOTATION": "CCCCCCCCCCCCCCCCCCCCCCCCCC(=O)N[C@@H](CO[C@H]1O[C@H](Cn2cc(CCCCCCCCCCCC)nn2)[C@H](O)[C@H](O)[C@H]1O)[C@H](O)[C@H](O)CCCCCCCCCCCCCC",
    "Activity": "Active"
  },
  {
    "LINE_NOTATION": "CCCCCCCCCCCCCCCCCCCCCCCCCC(=O)N[C@@H](CO[C@H]1O[C@H](Cn2cc(COCCOCCOCCOCCOCCOCCOCCOCCOC)nn2)[C@H](O)[C@H](O)[C@H]1O)[C@H](O)[C@H](O)CCCCCCCCCCCCCC",
    "Activity": "Active"
  },
  {
    "LINE_NOTATION": "CCCCCCCCCCCCCCCCCCCCCCCCCC(=O)N[C@@H](CO[C@H]1O[C@H](Cn2cc(CCCCCCCC)nn2)[C@H](O)[C@H](O)[C@H]1O)[C@H](O)[C@H](O)CCCCCCCCCCCCCC",
    "Activity": "Active"
  },
  {
    "LINE_NOTATION": "CCCCCCCCCCCCCCCCCCCCCCCCCC(=O)N[C@@H](CO[C@H]1O[C@H](CN=[N+]=[N-])[C@H](O)[C@H](O)[C@H]1O)[C@H](O)[C@H](O)CCCCCCCCCCCCCC",
    "Activity": "Active"
  }
]

From: ChEMBL document CHEMBL2057201
